TESTED_ON: S1P1 receptor (S1P1 expressing RH7777 membranes) (Homo sapiens)
Construct: expressed in transfected cells; host or cells: RH7777 cells (membranes)
Sequence (P21453 whole entry): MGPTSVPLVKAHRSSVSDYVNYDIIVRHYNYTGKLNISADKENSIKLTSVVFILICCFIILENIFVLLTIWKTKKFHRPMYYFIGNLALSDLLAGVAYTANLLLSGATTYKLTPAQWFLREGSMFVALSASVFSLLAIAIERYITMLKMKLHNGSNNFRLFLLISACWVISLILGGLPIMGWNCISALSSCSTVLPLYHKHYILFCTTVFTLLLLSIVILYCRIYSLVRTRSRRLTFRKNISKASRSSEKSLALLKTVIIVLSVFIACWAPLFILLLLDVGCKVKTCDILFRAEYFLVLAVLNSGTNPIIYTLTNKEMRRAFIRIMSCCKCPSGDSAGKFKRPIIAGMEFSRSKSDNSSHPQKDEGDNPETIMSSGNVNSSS
RUN_DESCRIPTION: S1P1 GTPγS assay
Type: biochemical
TEST_PARAMETERS: tested in one of the above S1P1 assays (two GTPγS formats)
pEC50: −log10 of the molar value. Counter-ions that a name gives are not always drawn.
REPORTED_METRIC: pEC50

Data request: What does the data say about its pEC50? Entry: `CNC(=O)CCN1CCc2c(ccc(-c3nnc(-c4ccc(OC(C)C)c(C#N)c4)s3)c2C)C1`
Data returned: ≥ 7.00

Data request: Moving on to `CC(C)Oc1ccc(-c2nc(-c3ccc4c(c3)CCN(C(=O)[C@@H](N)[C@@H](C)O)CC4)no2)cc1C#N`
Data returned: ≥ 7.00

Data request: Follow-up entry: CC(C)Oc1ccc(-c2nc(-c3ccc4c(c3)CCN(C(=O)CNCCO)CC4)no2)cc1C#N [Example 86, hydrochloride]
Data returned: ≥ 7.00

Data request: Also, CC(C)Oc1ccc(-c2nc(-c3ccc4c(c3)CCN(CC(=O)NC(CO)CO)CC4)no2)cc1C#N [Example 195, hydrochloride] please.
Data returned: ≥ 7.00

Data request: Would you kindly repeat that for Cc1c(-c2noc(-c3ccc(OC(C)C)c(C#N)c3)n2)ccc2c1CCN(C[C@@H](O)CO)C2 [Example 73, hydrochloride] ?
Data returned: ≥ 7.00

Data request: Also need `Cc1c(-c2nnc(-c3ccc(OC(C)C)c(C#N)c3)s2)ccc2c1CCN(CCCO)C2` , thanks.
Data returned: ≥ 6.00

Data request: Can you check `Cc1c(-c2noc(-c3cnc(OC(C)C)c(C#N)c3)n2)ccc2c1CCN(C[C@H](O)CO)C2` next?
Data returned: ≥ 6.00

Data request: Record: `Cc1c(-c2noc(-c3ccc(OC(C)C)c(C#N)c3)n2)ccc2c1CCN(C(=O)[C@](C)(N)CO)C2`
Data returned: ≥ 7.00

Data request: Try the compound Cc1c(-c2noc(-c3ccc(OC(C)C)c(C#N)c3)n2)ccc2c1CCN(C(CO)CO)CC2 [Example 156, hydrochloride]
Data returned: ≥ 7.00

Data request: Can you handle Cc1c(-c2noc(-c3ccc(OC(C)C)c(C#N)c3)n2)ccc2c1CCN(CC(=O)NC[C@H](O)CO)C2 [Example 124, hydrochloride] next?
Data returned: ≥ 7.00

Data request: Request: `CCNC(=O)CCCN1CCc2ccc(-c3noc(-c4ccc(OC(C)C)c(C#N)c4)n3)cc2CC1`
Data returned: ≥ 7.00

Data request: Try `CCCNc1ncc(-c2nc(-c3ccc4c(c3C)CCN(C(CO)CO)CC4)no2)cc1C#N` next.
Data returned: ≥ 6.00

Data request: Another compound: Cc1c(-c2noc(-c3ccc(OC(C)C)c(C#N)c3)n2)ccc2c1CCN(C(CO)CO)C2 [Example 64]
Data returned: ≥ 6.00

Data request: Then this compound: CCCOc1ccc(-c2nc(-c3ccc4c(c3)CCN(CC(O)CO)CC4)no2)cc1C#N (stereo not drawn)
Data returned: ≥ 7.00

Data request: Also check `Cc1c(-c2noc(-c3ccc(OC(C)C)c(C#N)c3)n2)ccc2c1CCN(CC(=O)NC[C@@H](C)O)CC2`
Data returned: ≥ 7.00

###

TESTED_ON: S1P1 receptor (S1P1 expressing RH7777 membranes) (Homo sapiens)
Construct: expressed in transfected cells; host or cells: RH7777 cells (membranes)
RUN_DESCRIPTION: S1P1 GTPγS assay
Type: biochemical
TEST_PARAMETERS: S1P1 GTPγS assay, first format, [35S]-GTPγS 0.5 nM
REPORTED_METRIC: pEC50
Formally, pEC50 is defined as -log10 of the concentration c, with c in mol/L.

Data request: Query the reported pEC50 for S1P1 receptor (S1P1 expressing RH7777 membranes) (Homo sapiens); item: Cc1c(-c2nnc(-c3ccc(OC(C)C)c(C#N)c3)s2)ccc2c1CCN(CC(O)CO)C2 (stereo not shown)
Data returned: 5.70
